Data provenance is the OligoGym collection.

study-conditions: siRNA; note: test system not given here
HELM strings list units from the 5' end as sugar, base in round brackets, then linkage (d deoxyribose, r ribose, m 2'-O-methyl, p phosphodiester). Strings are as the collection lists them, not checked against the first reports. ss, as = sense and antisense strand
Reported target mRNA knockdown values are given for each entry in this list.

{"columns": ["substance", "readout-unit", "target mRNA knockdown"],
 "data": [
  ["RNA1{r(A)p.r(A)p.r(C)p.r(C)p.m(C)p.r(A)p.r(A)p.r(A)p.r(G)p.r(G)p.r(G)p.m(G)p.r(A)p.r(G)p.r(U)p.m(U)p.r(G)p.r(C)p.r(U)p.r(T)p.r(T)}|RNA2{r(A)p.r(G)p.m(C)p.r(A)p.r(A)p.r(C)p.r(U)p.r(C)p.r(C)p.r(C)p.r(C)p.r(U)p.r(U)p.m(U)p.r(G)p.r(G)p.r(G)p.r(U)p.r(U)p.r(T)p.r(T)}$$$RNA1{StrandType:ss}|RNA2{StrandType:as}$", "%", 92],
  ["RNA1{r(A)p.r(U)p.m(A)p.r(C)p.r(U)p.r(U)p.r(G)p.r(G)p.r(C)p.r(G)p.r(G)p.r(G)p.r(C)p.r(U)p.r(C)p.r(U)p.r(U)p.r(U)p.r(C)p.r(T)p.r(T)}|RNA2{r(G)p.r(A)p.r(A)p.r(A)p.r(G)p.r(A)p.r(G)p.r(C)p.r(C)p.r(C)p.r(G)p.r(C)p.m(C)p.r(A)p.r(A)p.r(G)p.r(U)p.r(A)p.r(U)p.r(T)p.r(T)}$$$RNA1{StrandType:ss}|RNA2{StrandType:as}$", "%", 72],
  ["RNA1{r(C)p.m(U)p.r(A)p.r(G)p.r(U)p.r(C)p.r(G)p.r(A)p.r(A)p.r(A)p.r(G)p.r(A)p.r(A)p.r(A)p.r(A)p.r(C)p.r(G)p.r(G)p.r(G)p.r(T)p.r(T)}|RNA2{r(C)p.r(C)p.r(C)p.r(G)p.r(U)p.r(U)p.r(U)p.r(U)p.r(C)p.r(U)p.r(U)p.r(U)p.r(C)p.r(G)p.r(A)p.r(C)p.m(U)p.r(A)p.r(G)p.r(T)p.r(T)}$$$RNA1{StrandType:ss}|RNA2{StrandType:as}$", "%", 56]
]}

---

study-conditions: siRNA
HELM strings list units from the 5' end as sugar, base in round brackets, then linkage (d deoxyribose, r ribose, m 2'-O-methyl, p phosphodiester). Strings are as the collection lists them, not checked against the first reports. ss, as = sense and antisense strand; [lna] = locked nucleic acid (LNA); [fl2r] = 2'-fluoro
Assign Yes whenever target mRNA knockdown does not fall below 40%; assign No whenever it does.

{"columns": ["substance", "answer-label"],
 "data": [
  ["RNA1{m(A)p.r(A)p.m(A)p.r(C)p.m(G)p.r(U)p.m(G)p.r(A)p.m(C)p.r(U)p.m(U)p.r(U)p.m(G)p.r(G)p.m(U)p.r(U)p.m(C)p.r(C)p.m(U)p.r(T)p.r(T)}|RNA2{r(A)p.m(G)p.m(G)p.r(A)p.r(A)p.r(C)p.r(C)p.r(A)p.r(A)p.r(A)p.m(G)p.r(U)p.r(C)p.r(A)p.r(C)p.m(G)p.r(U)p.r(U)p.r(U)p.r(T)p.r(T)}$$$RNA1{StrandType:ss}|RNA2{StrandType:as}$", "No"],
  ["RNA1{r(C)p.r(U)p.r(U)p.r(A)p.r(C)p.r(G)p.r(C)p.r(U)p.r(G)p.r(A)p.r(G)p.r(U)p.r(A)p.r(C)p.r(U)p.r(U)p.r(C)p.r(G)p.r(A)p.r(T)p.r(T)}|RNA2{r(U)p.r(C)p.r(G)p.r(A)p.r(A)p.r(G)p.r(U)p.r(A)p.r(C)p.r(U)p.[lna](C)p.r(A)p.r(G)p.r(C)p.r(G)p.r(U)p.r(A)p.r(A)p.r(G)p.r(T)p.r(T)}$$$RNA1{StrandType:ss}|RNA2{StrandType:as}$", "Yes"],
  ["RNA1{r(A)p.r(A)p.r(G)p.r(G)p.r(A)p.r(G)p.r(A)p.r(U)p.r(C)p.r(A)p.r(A)p.r(C)p.r(A)p.r(U)p.r(U)p.r(U)p.m(U)p.m(C)p.m(A)p.r(T)p.r(T)}|RNA2{r(U)p.r(G)p.r(A)p.r(A)p.r(A)p.r(A)p.r(U)p.r(G)p.r(U)p.r(U)p.r(G)p.r(A)p.r(U)p.r(C)p.r(U)p.r(C)p.m(C)p.m(U)p.m(U)p.r(T)p.r(T)}$$$RNA1{StrandType:ss}|RNA2{StrandType:as}$", "Yes"],
  ["RNA1{r(C)p.r(C)p.r(G)p.r(A)p.r(G)p.r(A)p.r(G)p.m(C)p.r(U)p.r(C)p.m(U)p.r(C)p.r(C)p.m(U)p.r(A)p.r(C)p.r(C)p.r(U)p.r(U)p.r(T)p.r(T)}|RNA2{r(A)p.r(A)p.r(G)p.r(G)p.m(U)p.r(A)p.r(G)p.r(G)p.r(A)p.r(G)p.r(A)p.r(G)p.r(C)p.r(U)p.r(C)p.r(U)p.r(C)p.r(G)p.r(G)p.r(T)p.r(T)}$$$RNA1{StrandType:ss}|RNA2{StrandType:as}$", "Yes"],
  ["RNA1{r(G)p.r(C)p.[fl2r](U)p.r(A)p.r(C)p.r(C)p.r(G)p.r(C)p.r(A)p.r(A)p.r(C)p.r(C)p.r(A)p.r(C)p.r(G)p.r(A)p.r(G)p.r(C)p.r(U)p.r(T)p.r(T)}|RNA2{r(A)p.r(G)p.r(C)p.r(U)p.r(C)p.r(G)p.r(U)p.r(G)p.r(G)p.r(U)p.r(U)p.r(G)p.r(C)p.r(G)p.r(G)p.[fl2r](U)p.r(A)p.r(G)p.r(C)p.r(T)p.r(T)}$$$RNA1{StrandType:ss}|RNA2{StrandType:as}$", "Yes"]
]}
